B1: tRNA (parent)
chain: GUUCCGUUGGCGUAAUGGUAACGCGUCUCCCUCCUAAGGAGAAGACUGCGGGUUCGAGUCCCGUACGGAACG

# Variants of: B1
# method.notes: yeast fitness relative to wild type (ratio to wild type); higher = fitter; tRNA-Arg(CCU), competitive growth, 37 C, YPD
Variants at the floor of the assay were thinned out.
readout.name: yeast fitness

Solved cases below.
A21C C24A G39A: ≤ 0.5
A21U C30G U32C: ≤ 0.5
C30U C34A A36G C60U A70U: ≤ 0.5
C24U C31A C33A C34U C46A C62U G67A: ≤ 0.5
A20G A42C A45C G67C: ≤ 0.5

// below: yeast fitness requested for another variant
Provide yeast fitness value for the following variant: C29U G38C A45G G51C
≤ 0.5

From: the RNAGym collection of RNA variant scans (doi:10.1126/science.aae0568)
